# assay.explanation: physchem
# condition.notes: pH 2.7
Kind request: treat 3 as inclusive, so chromatographic logP at 3 or higher is Condition met, anything lower is Condition not met.

molecule	assigned.class
C#CCOc1c(F)cccc1C1CC(c2csc(C3CCN(C(=O)Cn4nc(C(F)F)cc4C(F)F)CC3)n2)=NO1 (stereo not drawn)	Condition met
Oc1cc(F)c(C2CC(c3csc(C4CCNCC4)n3)=NO2)c(F)c1 (stereo not drawn)	Condition not met
C#CCOc1cc(OC)ccc1C1CC(c2csc(C3CCN(C(=O)Cn4nc(C(F)F)cc4C(F)F)CC3)n2)=NO1 (stereo not drawn)	Condition met
CC(C)(C)OC(=O)N1CCC(c2nc(C3=NOC(c4c(F)cc(O)cc4F)C3)cs2)CC1 (stereo not drawn)	Condition met
O=C(Cn1nc(C(F)F)cc1C(F)F)N1CCC(c2nc(C3=NOC(c4c(F)ccc(O)c4F)C3)cs2)CC1 (stereo not drawn)	Condition not met
C#CCOc1ccc(F)cc1C1CC(c2csc(C3CCN(C(=O)Cn4nc(C(F)F)cc4C(F)F)CC3)n2)=NO1 (stereo not drawn)	Condition met
